- Tested System: C-C chemokine receptor type 1 (Homo sapiens)
- Assay Info: Displacement of [125I]MIP-1alpha from human recombinant CCR1 expressed in HEK293 cell membranes after 1.5 hrs by microbeta counting analysis
pIC50: −log10 of the molar value.
Tick 1 if pIC50 is 8 or greater. Tick 0 if pIC50 is less than 8.

Does pIC50 meet or surpass 8 for `Cc1cc2c(OC[C@@H](O)CN3CCC4(CC3)Cc3cc(Cl)ccc3O4)cccc2o1` ?
0

And then `NC(=O)Nc1ccc(F)cc1OC[C@@H](O)CN1CCC2(CC1)Cc1cc(Cl)ccc1O2` , what is it?
1

And then `O=c1[nH]c(=O)c2cccc(OC[C@@H](O)CN3CCC4(CC3)Cc3cc(Cl)ccc3O4)c2[nH]1` , what is it?
0

And then `CNC(=O)Nc1ccc(OC)cc1OC[C@@H](O)CN1CCC2(CC1)Cc1cc(Cl)ccc1O2` , what is it?
1

And then `O=C(Nc1cc(Cl)c(O)cc1OC[C@@H](O)CN1CCC2(CC1)Cc1cc(Cl)ccc1O2)NC1CC1` , what is it?
1

---

Give IC50 for every item shown.
- Tested System: Voltage-gated inwardly rectifying potassium channel KCNH2 (Homo sapiens, UniProt Q12809)
- Sequence (Q12809 whole entry): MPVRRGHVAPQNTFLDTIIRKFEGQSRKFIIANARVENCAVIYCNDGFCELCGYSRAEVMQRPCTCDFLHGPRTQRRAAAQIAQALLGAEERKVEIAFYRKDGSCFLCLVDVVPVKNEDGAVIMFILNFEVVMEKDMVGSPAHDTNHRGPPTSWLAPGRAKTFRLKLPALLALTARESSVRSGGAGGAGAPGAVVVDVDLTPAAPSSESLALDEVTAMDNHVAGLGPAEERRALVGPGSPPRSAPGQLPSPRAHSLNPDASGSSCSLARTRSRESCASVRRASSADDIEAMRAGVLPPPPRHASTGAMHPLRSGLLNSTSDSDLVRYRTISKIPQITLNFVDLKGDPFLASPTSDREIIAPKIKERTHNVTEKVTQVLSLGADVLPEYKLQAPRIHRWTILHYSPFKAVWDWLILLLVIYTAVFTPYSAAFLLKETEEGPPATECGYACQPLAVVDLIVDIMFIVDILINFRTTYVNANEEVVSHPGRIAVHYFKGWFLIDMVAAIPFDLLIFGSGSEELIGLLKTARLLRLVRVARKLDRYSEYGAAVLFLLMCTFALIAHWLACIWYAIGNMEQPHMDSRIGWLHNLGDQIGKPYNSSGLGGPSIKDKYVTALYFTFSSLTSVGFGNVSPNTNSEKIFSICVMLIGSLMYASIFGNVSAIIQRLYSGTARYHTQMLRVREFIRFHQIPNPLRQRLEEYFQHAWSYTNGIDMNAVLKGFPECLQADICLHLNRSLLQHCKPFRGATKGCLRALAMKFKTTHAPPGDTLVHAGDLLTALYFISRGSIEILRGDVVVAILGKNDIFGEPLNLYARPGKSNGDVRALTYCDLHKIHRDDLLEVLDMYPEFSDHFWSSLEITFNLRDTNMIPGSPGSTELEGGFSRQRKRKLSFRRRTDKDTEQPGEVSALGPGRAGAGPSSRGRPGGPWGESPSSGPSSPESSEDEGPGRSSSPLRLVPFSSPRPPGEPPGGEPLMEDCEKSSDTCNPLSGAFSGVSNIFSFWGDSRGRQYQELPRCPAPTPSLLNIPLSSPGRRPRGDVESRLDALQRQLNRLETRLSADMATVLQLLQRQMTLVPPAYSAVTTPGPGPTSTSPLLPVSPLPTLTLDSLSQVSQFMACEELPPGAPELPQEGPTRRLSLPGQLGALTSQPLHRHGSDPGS
Report as a plain number; the unit µM is understood.

Field: IC50 (Voltage-gated inwardly rectifying potassium channel KCNH2 (Homo sapiens, UniProt Q12809)). Entry: `CNC(=O)Nc1ccc(O)cc1OC[C@@H](O)CN1CCC2(CC1)Cc1cc(Cl)ccc1O2`
4.6

And then `O=C(Nc1ccc(O)cc1OC[C@@H](O)CN1CCC2(CC1)Cc1cc(F)ccc1O2)NC1CC1` , what is it?
3.8

And then `O=C1CCc2cccc(OC[C@@H](O)CN3CCC4(CC3)Cc3cc(Cl)ccc3O4)c2N1` , what is it?
0.5

And then `O=C(Nc1cc(Cl)c(O)cc1OC[C@@H](O)CN1CCC2(CC1)Cc1cc(Cl)ccc1O2)NC1CC1` , what is it?
1

And then `NC(=O)Nc1ccccc1OC[C@@H](O)CN1CCC2(CC1)Cc1cc(Cl)ccc1O2` , what is it?
0.4

And then `O=C1COc2cccc(OC[C@@H](O)CN3CCC4(CC3)Cc3cc(Cl)ccc3O4)c2N1` , what is it?
0.6

And then `CNC(=O)Nc1ccc(O)cc1OC[C@@H](O)CN1CCC2(CC1)Cc1cc(F)ccc1O2` , what is it?
13.1

And then `N[C@H](COc1cccc2ccc(=O)[nH]c12)CN1CCC2(CC1)Cc1cc(F)ccc1O2` , what is it?
1.2

---

- Tested System: C-C chemokine receptor type 1 (Homo sapiens, UniProt P32246)
- Sequence (P32246 whole entry): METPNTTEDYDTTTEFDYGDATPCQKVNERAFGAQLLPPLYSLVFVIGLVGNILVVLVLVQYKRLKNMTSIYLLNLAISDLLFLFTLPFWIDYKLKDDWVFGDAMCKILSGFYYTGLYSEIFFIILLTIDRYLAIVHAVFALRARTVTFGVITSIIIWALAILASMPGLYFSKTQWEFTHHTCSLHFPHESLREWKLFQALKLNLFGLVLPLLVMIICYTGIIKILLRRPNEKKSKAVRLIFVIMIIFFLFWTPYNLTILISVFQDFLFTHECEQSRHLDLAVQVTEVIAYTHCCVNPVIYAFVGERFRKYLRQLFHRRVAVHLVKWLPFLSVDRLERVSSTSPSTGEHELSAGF
- Assay Info: Displacement of [125I]MIP-1alpha from human recombinant CCR1 expressed in HEK293 cell membranes after 1.5 hrs by microbeta counting analysis
Give pIC50 for every item shown.
Just the number, please; pIC50 means minus log10 of the concentration in mol/L.

I am curious: what pIC50 value has been reported for `NC(=O)Nc1ccccc1OC[C@@H](O)CN1CCC2(CC1)Cc1cc(Cl)ccc1O2` ?
8.17

And then `O=c1ccc2cccc(OC[C@@H](O)CN3CCC4(CC3)Cc3cc(Cl)ccc3O4)c2[nH]1` , what is it?
7.43

And then `O=C(Nc1ccc(O)cc1OC[C@@H](O)CN1CCC2(CC1)Cc1cc(F)ccc1O2)NC1CC1` , what is it?
9.20

And then `CNC(=O)Nc1ccc(O)cc1OC[C@@H](O)CN1CCC2(CC1)Cc1cc(Cl)ccc1O2` , what is it?
8.89

And then `O=C(Nc1ccc(O)cc1OC[C@@H](O)CN1CCC2(CC1)Cc1cc(Cl)ccc1O2)NC1CC1` , what is it?
9.05

And then `N[C@H](COc1cccc2c1NC(=O)CO2)CN1CCC2(CC1)Cc1cc(F)ccc1O2` , what is it?
7.10

And then `COc1ccc(NC(=O)NC2CC2)c(OC[C@@H](O)CN2CCC3(CC2)Cc2cc(Cl)ccc2O3)c1` , what is it?
8.74

And then `N[C@H](COc1cccc2ccc(=O)[nH]c12)CN1CCC2(CC1)Cc1cc(F)ccc1O2` , what is it?
6.25

And then `Cc1nc2c(OC[C@@H](O)CN3CCC4(CC3)Cc3cc(Cl)ccc3O4)cccc2s1` , what is it?
5.89
